Target protein (sequence): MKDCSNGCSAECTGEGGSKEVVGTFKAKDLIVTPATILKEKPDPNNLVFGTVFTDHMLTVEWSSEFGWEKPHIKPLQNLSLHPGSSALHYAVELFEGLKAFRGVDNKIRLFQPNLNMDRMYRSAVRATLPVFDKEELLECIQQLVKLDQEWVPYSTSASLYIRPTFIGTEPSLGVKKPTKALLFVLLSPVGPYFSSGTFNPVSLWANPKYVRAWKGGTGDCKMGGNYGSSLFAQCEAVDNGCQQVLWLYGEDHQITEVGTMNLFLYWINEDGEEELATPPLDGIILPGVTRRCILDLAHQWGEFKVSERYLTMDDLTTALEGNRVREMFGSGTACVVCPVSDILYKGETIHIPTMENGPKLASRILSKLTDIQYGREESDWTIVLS
Value type: IC50

Sample records with IC50:
>>> result("O=C(N[C@H]1CCC[C@@H](n2c(-c3ccccn3)nc3cnc(-c4ncco4)cc32)C1)c1ccc(Br)s1")
"< 0.5 µM"
>>> result("O=C(N[C@H]1CCC[C@@H](n2c(-c3ccccn3)nc3cc(-n4nccn4)ncc32)C1)c1ccc(Br)s1")
"> 5 µM"
>>> result("CNC(=O)c1cc2nc(CC(C)C)n([C@@H]3CCC[C@H](NC(=O)c4ncc(Cl)s4)[C@H]3O)c2cn1 (single isomer, unassigned)")
"1 to 5 µM"
>>> result("O=C(N[C@H]1CCC[C@@H](n2c(C3CCCCO3)nc3cnc(-c4nc[nH]n4)cc32)C1)c1ncc(Cl)s1 (single isomer, unassigned) [Example 89]")
"0.5 to 1 µM"
>>> result("O=C(O)Cc1ccccc1-c1nc2cnc(-n3nccn3)cc2n1[C@@H]1CCC[C@H](NC(=O)c2ncc(C(F)F)s2)C1")
"1 to 5 µM"
>>> result("CO[C@H]1C[C@H](NC(=O)c2ncc(Cl)s2)C[C@H](n2c(CC(C)C)nc3cnc(-c4ncccn4)cc32)C1")
"< 0.5 µM"

Now let's try a different one.
Value of measured IC50 for the entry "CC(C)[C@@H](O)c1nc2cnc(-c3ccccn3)cc2n1[C@@H]1CCC[C@H](NC(=O)c2ncc(Cl)s2)C1" : < 0.5 µM
